Here, each record is paired with measured viability, T/C data.
Test system: 993429-296-R-J1-PDC complex spheroid growth, percent test/control
Experiment: Anticancer human tumor 993429-296-R-J1-PDC patient-derived uterine sarcoma cell line growth inhibition [Asc]
Settings: second compound 0.0949 µM; first compound 0.1 µM; hits give low values
Source text: Multicellular complex tumor spheroid response to apoptosis pathway targeting inhibitors Alrizomadlin, Pelcitoclax, and Dasminapant in combination with a variety of drugs and investigational agents in selected tumor cell lines […] Compounds. […] If the clinical Cmax for an agent had not been determined, the highest concentration tested was 10 microM. […]
outcome.measure: viability, T/C (%)

>>> value("C=CC(=O)N1CCN(c2nc(=O)n(-c3c(C)ccnc3C(C)C)c3nc(-c4c(O)cccc4F)c(F)cc23)C(C)C1 (stereo not drawn) + CCN1C(C(=O)NC23CCC(C(=O)O)(CC2)CC3)C(c2cccc(Cl)c2F)C2(C(=O)Nc3cc(Cl)ccc32)C12CCCCC2")
106
>>> value("CNC(C)C(=O)NC1CN(S(=O)(=O)c2cccc(S(=O)(=O)N3CCC4CCC(C(=O)NC(c5ccccc5)c5ccccc5)N4C(=O)C(NC(=O)C(C)NC)C3)c2)CCC2CCC(C(=O)NC(c3ccccc3)c3ccccc3)N2C1=O (stereo not drawn) + CCN1C(C(=O)NC23CCC(C(=O)O)(CC2)CC3)C(c2cccc(Cl)c2F)C2(C(=O)Nc3cc(Cl)ccc32)C12CCCCC2")
68.7
>>> value("C#Cc1c(F)ccc2cc(O)cc(-c3ncc4c(N5CC6CCC(C5)N6)nc(OCC56CCCN5CC(F)C6)nc4c3F)c12 (stereo not drawn) + CCN1C(C(=O)NC23CCC(C(=O)O)(CC2)CC3)C(c2cccc(Cl)c2F)C2(C(=O)Nc3cc(Cl)ccc32)C12CCCCC2")
95.4

* * *

System: 993429-296-R-J1-PDC complex spheroid growth, percent test/control
Assay: Anticancer human tumor 993429-296-R-J1-PDC cell line growth inhibition [Asc]; active = viability on the fitted dose curve at most 10% of control; inactive = the rest;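 note: spheroids exposed to compounds for seven days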
Details: second compound 0.0316 µM; first compound 0.316 µM
Classes used: 1 (active), 0 (inactive)

>>> assigned_category("C#Cc1c(F)ccc2cc(O)cc(-c3ncc4c(N5CC6CCC(C5)N6)nc(OCC56CCCN5CC(F)C6)nc4c3F)c12 (configuration not stated) + CNC(C)C(=O)NC1CN(S(=O)(=O)c2cccc(S(=O)(=O)N3CCC4CCC(C(=O)NC(c5ccccc5)c5ccccc5)N4C(=O)C(NC(=O)C(C)NC)C3)c2)CCC2CCC(C(=O)NC(c3ccccc3)c3ccccc3)N2C1=O")
0
>>> assigned_category("C=C(F)C(=O)N1CCN(c2nc(OCC3CCCN3C)nc3c2CCN(c2cccc4cccc(Cl)c24)C3)CC1CC#N (configuration not stated) + CNC(C)C(=O)NC1CN(S(=O)(=O)c2cccc(S(=O)(=O)N3CCC4CCC(C(=O)NC(c5ccccc5)c5ccccc5)N4C(=O)C(NC(=O)C(C)NC)C3)c2)CCC2CCC(C(=O)NC(c3ccccc3)c3ccccc3)N2C1=O")
0
>>> assigned_category("CCN1CCN(Cc2ccc(Nc3ncc(F)c(-c4cc(F)c5nc(C)n(C(C)C)c5c4)n3)nc2)CC1 + CNC(C)C(=O)NC1CN(S(=O)(=O)c2cccc(S(=O)(=O)N3CCC4CCC(C(=O)NC(c5ccccc5)c5ccccc5)N4C(=O)C(NC(=O)C(C)NC)C3)c2)CCC2CCC(C(=O)NC(c3ccccc3)c3ccccc3)N2C1=O")
0
>>> assigned_category("C=CC(=O)N1CCN(c2nc(=O)n(-c3c(C)ccnc3C(C)C)c3nc(-c4c(O)cccc4F)c(F)cc23)C(C)C1 (configuration not stated) + CNC(C)C(=O)NC1CN(S(=O)(=O)c2cccc(S(=O)(=O)N3CCC4CCC(C(=O)NC(c5ccccc5)c5ccccc5)N4C(=O)C(NC(=O)C(C)NC)C3)c2)CCC2CCC(C(=O)NC(c3ccccc3)c3ccccc3)N2C1=O")
0
>>> assigned_category("O=C(c1cc(Cc2n[nH]c(=O)c3ccccc23)ccc1F)N1CCN(C(=O)C2CC2)CC1 + CNC(C)C(=O)NC1CN(S(=O)(=O)c2cccc(S(=O)(=O)N3CCC4CCC(C(=O)NC(c5ccccc5)c5ccccc5)N4C(=O)C(NC(=O)C(C)NC)C3)c2)CCC2CCC(C(=O)NC(c3ccccc3)c3ccccc3)N2C1=O")
0
>>> assigned_category("COc1c(OCCCN2CCOCC2)ccc2c3n(c(=NC(=O)c4cnc(N)nc4)nc12)CCN3 + CNC(C)C(=O)NC1CN(S(=O)(=O)c2cccc(S(=O)(=O)N3CCC4CCC(C(=O)NC(c5ccccc5)c5ccccc5)N4C(=O)C(NC(=O)C(C)NC)C3)c2)CCC2CCC(C(=O)NC(c3ccccc3)c3ccccc3)N2C1=O")
1
>>> assigned_category("O=C(c1ccc(F)c(F)c1Nc1ccc(I)cc1F)N1CC(O)([C@@H]2CCCCN2)C1 + CNC(C)C(=O)NC1CN(S(=O)(=O)c2cccc(S(=O)(=O)N3CCC4CCC(C(=O)NC(c5ccccc5)c5ccccc5)N4C(=O)C(NC(=O)C(C)NC)C3)c2)CCC2CCC(C(=O)NC(c3ccccc3)c3ccccc3)N2C1=O")
0

These measurements were taken from PubChem BioAssay AID1963446.
